assay: Clearance in rat at 1 mg/kg, iv; type: ADME, organism-based; set-up: dose 1 mg/kg, route intravenous; conditions: in vivo
Would you mind telling me the reported clearance of each entry?
Numbers only, in mL/min/kg.

Consider the worked cases shown below.
{"TEST SMILES": "Cc1cc2ncc(-c3ccc4cc(CCN5CCC[C@H]5C)ccc4n3)c(C)n2n1", "clearance / mL/min/kg": 14}
{"TEST SMILES": "Cc1nc2ncccc2cc1-c1ccc2cc(CCN3CCC[C@H]3C)ccc2n1", "clearance / mL/min/kg": 42.3}
{"TEST SMILES": "CCOc1ccc(-n2ncc(-c3ccc4cc(CCN5CCC[C@H]5C)ccc4n3)c2C)nn1", "clearance / mL/min/kg": 8.83}
{"TEST SMILES": "Cc1nc(N2CCCC2)ncc1-c1ccc2cc(CCN3CCC[C@H]3C)ccc2n1", "clearance / mL/min/kg": 24.2}

For every item in the list below, what is its measured clearance?
1. C[C@@H]1CCCN1CCc1cc2cc(-c3ccc(C#N)cc3)ccc2o1
2. Cc1nn(C)cc1-c1ccc2cc(CCN3CCC[C@H]3C)ccc2n1
3. Cc1c(-c2ccc3cc(CCN4CCC[C@H]4C)ccc3n2)cnn1-c1ccccn1

[25, 61.7, 19.7]
